tested on: VDR homodimer (NR concentration 270 nM); assay: PBM binding z-score (relative to random genomic background probes); higher = stronger binding; sequences stand for … in GC…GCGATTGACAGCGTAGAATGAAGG
Give measured PBM binding z-score for each item. Keep answers brief.

Give PBM binding z-score for `TCTCGGAGGACAGGAAGGTCAGAGCTTTCCAGAG` 0.37

Give PBM binding z-score for `CAAACTAGGTCAAGGTCAAAGTCGGTTTGTGCCA` 4.46

Give PBM binding z-score for `GCTTACGGGTCAAAGGTTATACCATGAATAGAAT` 1.77

Give PBM binding z-score for `ACTATTAGTTGAGACGACGGCAACCGATAGGTTG` -0.117

Give PBM binding z-score for `GATACAGGGTCAGCTAAAGGCCAGAGTATGGAAA` 0.806

Give PBM binding z-score for `TCGAGTAGGTTAGTGGGGGCATTCAGCCAACATA` 3.31

Give PBM binding z-score for `CGAACTAGGTCAAGGACCGTGAATCTCCGCACGC` -0.163

Give PBM binding z-score for `CCGACTGCGGCAAGGTTACCATAACGCACAGCCA` 0.321

Give PBM binding z-score for `CCGACTGGGGAAAGGTTACCATAACGCACAGCCA` -0.242

Give PBM binding z-score for `CTACCAAGGTGAACAAGGTCGTTTATTACTATTC` 3

Give PBM binding z-score for `ACTCGGAGGACAAAGGTCAGAGCCACGCCAGTGA` 1.13

Give PBM binding z-score for `TGTCTAAGTTCAAAGGTAACGTAAGTATCCACAC` 3.83

Give PBM binding z-score for `TCATATAGGTAAATGCTAGGTGTAAGTCCGATCT` 0.144

Give PBM binding z-score for `GGTATTAGTTGAAAGGGCAACCGAATGATTCTCG` 1.23

###

Give measured PBM binding z-score for each item. Keep answers brief.
system: PXR homodimer (NR concentration 270 nM); test: PBM binding z-score (relative to random genomic background probes); higher = stronger binding; sequences stand for … in GC…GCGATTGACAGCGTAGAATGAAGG
Would you mind answering with just the numeric figure?

Give PBM binding z-score for `GTAGCAAGGTGAATAGGTCGTTGATGAGTAGGCG` -0.13

Give PBM binding z-score for `CCTGCCAGGTCAATGGTCAGCTAAAGCAGCTCGC` -0.223

Give PBM binding z-score for `TCTAGCAGGCCAGAGGGTCGCTCAAGAGGTACGG` -0.896

Give PBM binding z-score for `TTTGCTAGGTCAGTTGGTCAGCTAACGAGCTGCC` -0.599

Give PBM binding z-score for `TGAAAGAGGTTAAAGATCAGGGAACGTGGCGTCG` 0.0556

Give PBM binding z-score for `ACAGTCAGGTGAGTGAAGGTAACTCAGCTGGACG` -0.728

Give PBM binding z-score for `AGTCAAAGTTCACTAGGTAACGTGAGATTCAGCT` 1.97

Give PBM binding z-score for `CCGGACAGGTGAAAGGTAACTCAGTCTGGTACGC` 0.241

Give PBM binding z-score for `ATCGAAAGGTCGTGGTGAGTATAGAGAAAGGGAA` 0.954

Give PBM binding z-score for `GCTAGCAGGCCATTTGGGTCGCTCAATGACGGGC` -0.85

Give PBM binding z-score for `CTCGAAAGGTCGTGCTCAGGTGAGTAAACCAAAC` 0.175

Give PBM binding z-score for `CGTCCAAGGTCAGAGAGGTCAGTGGATGCCGAGT` 11.7

Give PBM binding z-score for `AGGCAAAGTTCAGGACGAGGTAACGTAAAGCACG` 1.59

Give PBM binding z-score for `CGAACTAGGTCAGTACAGGACAGTGAAGGATGAT` -0.456

Give PBM binding z-score for `ATATGTAGGTTATCGGCTCATTCAGTTTGCGCAT` 0.405

Give PBM binding z-score for `TCGAGTAGGTTAGTCGGGGCATTCAACCAACATA` -0.2

Give PBM binding z-score for `TCTTGTAGATCAACAGGAGGTTAACAAAGATCGA` 0.0367

Give PBM binding z-score for `GTACCAAGGTGAATAGGTCGTCGATGAGTAGGCG` -0.119

Give PBM binding z-score for `CAAACTAGGTCAATAGGTCAAAGTCCGCTTCCCG` 0.894

Give PBM binding z-score for `TCATATAGGTAAATGCTAGATGAAAGTCCGATCT` 0.0659

Give PBM binding z-score for `AATACAGGGTCATCGTAGGCGAGAGTACGCACAG` 1.03

Give PBM binding z-score for `TCATATACGTAATACAGGTGAAAGTCGGCATCTA` 0.477

Give PBM binding z-score for `AGAATTAGGTTATTAAGATCAGGGAATTGCGGTC` 0.468

Give PBM binding z-score for `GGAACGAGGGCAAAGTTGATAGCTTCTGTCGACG` 0.104

Give PBM binding z-score for `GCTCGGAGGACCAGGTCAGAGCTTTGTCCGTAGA` -0.875

Give PBM binding z-score for `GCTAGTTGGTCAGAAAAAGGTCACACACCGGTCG` 1.01

Give PBM binding z-score for `ATAAGTAGGTTACATCCGGGTCATTCAGGCTATG` 2.42

Give PBM binding z-score for `ACTATTAGTTGAGACGAGGACAACCGATAGGTTG` 0.155

Give PBM binding z-score for `CGTTAAAGTTCAAGGTAACGTAACAGAAAGCAGC` 2.16

Give PBM binding z-score for `CATTACGGGTCAAGGTTATAGCACGGGTGGTACG` 0.701

Give PBM binding z-score for `ATCTCTAGGTAAAAGTTCACTGAATCCCGAGGAT` 2.38

Give PBM binding z-score for `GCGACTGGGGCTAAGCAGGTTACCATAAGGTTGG` -0.222

Give PBM binding z-score for `CCTAGCACGCCAATCTGGGTCACTCAAGGCTTGA` -0.246

Give PBM binding z-score for `AATACAGGGTCACTAGGCCAGCGTAGGTACGAAT` 0.293

Give PBM binding z-score for `TAGCCTAGGTCATGCGGTCCAGTATAGTGTCGGC` 0.0796

Give PBM binding z-score for `CGTCCAAGGTCAGAGAGGTTAGTGAATGCCGAGT` 4.8

Give PBM binding z-score for `CCTCGGAGGACAACAGGAGGTCACAGCTGCCAGA` 0.604

Give PBM binding z-score for `GCTATTAGTTGAAAGGGCAACCGAATGATTCTCG` 0.108

Give PBM binding z-score for `GCGACTGGGGCAAAGCATGTTACCATAAGGTTGG` -0.713

Give PBM binding z-score for `AACACAGGGTCATCGTAGGCCAGAGTACGCACAG` 0.707

Give PBM binding z-score for `TCATATAGGTAAATGCTAGGTGAAAGCCCGATCT` -0.0207

Give PBM binding z-score for `ATCGAAAGGTCGAAGTGAGTATAGAGAAAGGGAA` 0.245

Give PBM binding z-score for `CATACAGGGTCAGCTAGTCCAGAGTAGGGACGGC` -0.00687

Give PBM binding z-score for `TCATATAGGTAATACAGGTGAGAGTCGGCATCTA` 0.623

Give PBM binding z-score for `CGTCCAAAGTCAAGGTCAGTGAAAGAGACTCGAA` 1.01

Give PBM binding z-score for `AGAACGAGGGCAATGCGTTGATAGCACGGGTGGC` 0.111

Give PBM binding z-score for `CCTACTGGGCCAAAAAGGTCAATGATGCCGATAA` 0.909

Give PBM binding z-score for `CATTACGGGTCACTCCAGGTTATAGCATCGGAGT` 0.705

Give PBM binding z-score for `CCTAGTTGGTCTGGAGGTCACACACCGGATATGA` 1.81

Give PBM binding z-score for `TCTTGAAGATCAACAGGAGGTTAAGAAAGATCGA` -0.127

Give PBM binding z-score for `TCTTGTAGATCAATAGAGGTGAAGAAAGTGCGCT` -0.318

###

system: LXRb:RXRa (NR concentration 270 nM, RXRa partner concentration 90 nM); assay: PBM binding z-score (relative to random genomic background probes); higher = stronger binding; sequences stand for … in GC…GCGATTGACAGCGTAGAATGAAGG
Give measured PBM binding z-score for each item. Keep answers brief.
Would you mind answering with just the numeric figure?

Give PBM binding z-score for `CCAGACAGGTGAGACGGTAACTCAGCCTCGATTA` -0.263

Give PBM binding z-score for `CAAACTAGGTCAAGAGGTCACAGTCCGCTTCCCG` 4.97

Give PBM binding z-score for `GGAACGAGGGCAAAGCTGATAGCATCTGTCGACG` -0.126

Give PBM binding z-score for `CATACAGGGTCAGCTAGGCCAAAGTAGGGACGGC` 2.39

Give PBM binding z-score for `TCTGCTCGGTCAGTTGGTCAGCTAACGAGCTGCC` -0.506

Give PBM binding z-score for `CCTGCTAGGTCAATGGTCAGCAAAAGCAGCTCGC` 1.33

Give PBM binding z-score for `TTACCCAGGTGAAAGGTCGTTGATGCACGCCTTG` 2.75

Give PBM binding z-score for `CGAACTAGGTCAAGGACAGTGATTCTCCGCACGC` 1.56

Give PBM binding z-score for `CAAACTAGGTCACTGGAAGGTCAAAGTCCGCATG` 4.88

Give PBM binding z-score for `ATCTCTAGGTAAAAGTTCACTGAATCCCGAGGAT` 1.79

Give PBM binding z-score for `CCTACTGGGCTATTCAGAGGTCATTGATCATATG` 3.7

Give PBM binding z-score for `TCGAGTAGGTTAGTCGGGGCAGTCAGCCAACATA` 0.0169
